- System: MS2 coat protein
- Measurement Description: apparent KD of MS2 coat protein; higher = weaker reporter binding
- Condition Details: Eterna round: R107; input ligand: arginine 13.2 mM
Outcome Measure: apparent KD of MS2 coat protein (nM)

1) GGACUAACCAGAAGGAGCGACACGCAGAAACUGCAAAUUCCUCUGCACGAGGAUCACCCGUGUCAGGUAGGUCGCUGGUUAGUCG ... 29.9
2) GUGGAGACCUCGGCCGCCACUCUCCAUGAGGAUCUCCCAUGUAACAUGAGGAUCACCCAUGUGCUGAGGACCGGGAGGUCCUGAA [Same State Tryptophan B GF 19] ... 15.7
3) GGAUAGGACAGAAGGAGCGUGAGAUGCAUACCUUCAUUCCUCACAUGAGGAUCACCCAUGUCACAGGUAGGUCGCUGUCCUAUCG [#20 Exclusion - Arginine B] ... 64.8
4) AUAUUUAACGGAAGGAGCGCGGAUAAUAAAGUGGGUAAACAUGAGGAUCACCCAUGUAAACCGCAGGUAGGUCGCCGAUAUAUAU [AstrosEXyARgB#7] ... 26.4
5) AUCGCACCUGGUGAUACCAGCAAUUGCUCGUGACAUGAGGAUCACCCAUGUGGCCAGUGAUGCCCUUGGCAGCAUGGUCGGUGCA [Same State - Theophylline B (Freestyle 25)] ... 98.2
6) GGACUAACCAGAAGGAGCGGCGCGCAGAAACUGCUAAUUCCUCCGCACGAGGAUCACCCGUGUCAGGUAGGUCGCUGGUUAGUCG [ArgBX 28] ... 10.3
